// EC50 cAMP, Alpha Screen lookup, one value per entry
- system-name: T1, human VPAC2 receptor (human, UniProt P41587 24-438)
- T1 sequence (looked up): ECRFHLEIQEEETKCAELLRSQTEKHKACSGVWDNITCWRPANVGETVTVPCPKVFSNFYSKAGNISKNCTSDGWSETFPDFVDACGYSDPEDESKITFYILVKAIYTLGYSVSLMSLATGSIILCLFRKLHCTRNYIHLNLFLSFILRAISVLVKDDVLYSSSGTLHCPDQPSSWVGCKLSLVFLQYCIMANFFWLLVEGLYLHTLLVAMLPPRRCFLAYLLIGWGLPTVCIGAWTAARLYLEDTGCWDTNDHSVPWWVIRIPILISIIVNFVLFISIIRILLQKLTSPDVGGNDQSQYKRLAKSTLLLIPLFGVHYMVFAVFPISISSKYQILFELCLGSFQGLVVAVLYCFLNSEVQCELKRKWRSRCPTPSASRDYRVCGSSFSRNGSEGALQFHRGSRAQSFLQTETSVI
- assay-procedure: cell-based or functional assay
Where no end group is shown, it is not given here. [ ]: non-standard residue; d: D form. The star is where a group is joined. Hexanoyl = CCCCCC(=O)*; Aib = CC(C)(N)C(=O)O

Q: Which EC50 cAMP, Alpha Screen is reported for this binder? Hexanoyl-HSDAVFTDNYTRLRKQVAAIKYLQSIKNKRYGGPSSGAPPPS [P149]
A: 0.41 nM

Q: # repeat for Hexanoyl-HSDAVFTDNYTRLRKQVAAQKYLNQLKKGGPSSGAPPPS [P144]
A: 0.32 nM

Q: # repeat for Hexanoyl-HSDAVFTDNYTRL[Aib]KQVAAAKYLQSIKNKRYGGPSSGAPPPS (ends and bridges not checked) [P260]
A: 0.83 nM

Q: # repeat for Hexanoyl-HSDAVFTDNYTRLR[Aib]QVAA[Aib]KYLQSIKQKGGPSSGAPPPS (ends and bridges not checked) [P294]
A: 0.24 nM

Q: # repeat for Hexanoyl-HSDAVFTDNYTRLRKQVAGKKYLQSIKNKRYGGPSSGAPPPS [P275]
A: 0.32 nM
